Where do the numbers come from? From PubChem BioAssay (NCATS).

# Reported conditions: Ebola virus entry assay, blue channel fluorescence
Active and inactive are the calls of the source. How the calls were made is not given here.
Observation type: AC50

{"Molecule": "COc1ccc(OC(=O)N(CC(=O)O)Cc2ccc(OCCc3nc(-c4ccccc4)oc3C)cc2)cc1", "Observation type": "AC50", "Reading": "inactive"}
{"Molecule": "O=C(O)COC(=O)Cc1ccccc1Nc1c(Cl)cccc1Cl", "Observation type": "AC50", "Reading": "inactive"}
{"Molecule": "Cc1cccc(OCC(O)CNC(C)(C)C)c1C (stereo unspecified)", "Observation type": "AC50", "Reading": "39.8 µM (active)"}
{"Molecule": "CN1CCc2cc(Cl)c(O)cc2[C@H]2c3ccccc3CC[C@@H]21", "Observation type": "AC50", "Reading": "25.1 µM (active)"}
{"Molecule": "O=C(CCCN1CCN(c2ccc(F)cc2)CC1)NC1c2ccccc2CSc2ccccc21 (stereo unspecified)", "Observation type": "AC50", "Reading": "8.91 µM (active)"}
{"Molecule": "CC(C)(C)C(=O)C(Oc1ccc(Cl)cc1)n1ccnc1 (stereo unspecified)", "Observation type": "AC50", "Reading": "39.8 µM (active)"}
{"Molecule": "Nc1ccn(C2CO[C@H](CO)O2)c(=O)n1 (stereo partly specified)", "Observation type": "AC50", "Reading": "inactive"}
{"Molecule": "CN(C)[C@@H]1C(=O)C(C(=O)NCN2CCCC2)=C(O)[C@@]2(O)C(=O)C3=C(O)c4c(O)cccc4[C@@](C)(O)C3C[C@@H]12 (stereo partly specified)", "Observation type": "AC50", "Reading": "11.2 µM (active)"}
{"Molecule": "Cc1nc2ccccc2c(=O)n1-c1ccccc1Cl", "Observation type": "AC50", "Reading": "inactive"}
{"Molecule": "O=C1c2cccc(O)c2C(=O)c2c(O)cccc21", "Observation type": "AC50", "Reading": "inactive"}
{"Molecule": "O=C(CCCCCCCCC#CI)Oc1ccccc1", "Observation type": "AC50", "Reading": "inactive"}
{"Molecule": "CC[C@H]1C[C@@H]2C[C@H]3c4[nH]c5ccc(OC)cc5c4CCN(C2)[C@@H]13", "Observation type": "AC50", "Reading": "31.6 µM (active)"}
{"Molecule": "COc1cc(C[C@@H](C)N)c(OC)cc1C", "Observation type": "AC50", "Reading": "35.5 µM (active)"}
{"Molecule": "Cc1ccc(/C(=C\\CN2CCCC2)c2ccccn2)cc1", "Observation type": "AC50", "Reading": "31.6 µM (active)"}
{"Molecule": "C=C[C@@]1(C)CC(=O)[C@]2(O)[C@@]3(C)[C@@H](O)CCC(C)(C)[C@@H]3[C@H](O)[C@H](OC(C)=O)[C@@]2(C)O1", "Observation type": "AC50", "Reading": "10 µM (active)"}
{"Molecule": "CNC1CCCN(c2c(F)cc3c(=O)c(C(=O)O)cn(C4CC4)c3c2OC)C1 (stereo unspecified)", "Observation type": "AC50", "Reading": "inactive"}
{"Molecule": "CC(C)COCC(CN(Cc1ccccc1)c1ccccc1)N1CCCC1 (stereo unspecified)", "Observation type": "AC50", "Reading": "2.82 µM (active)"}
{"Molecule": "CNC(=O)c1cnn(-c2nc(N)c3ncn([C@@H]4O[C@H](CO)[C@@H](O)[C@H]4O)c3n2)c1", "Observation type": "AC50", "Reading": "inactive"}
{"Molecule": "C[C@]12C=CC(=O)C=C1CC[C@@H]1[C@@H]2CC[C@@]2(C)[C@H]1CC[C@]2(C)O", "Observation type": "AC50", "Reading": "inactive"}
{"Molecule": "NCc1ccccc1Sc1ccccc1CO", "Observation type": "AC50", "Reading": "39.8 µM (active)"}
{"Molecule": "C#C[C@]1(O)CC[C@H]2[C@@H]3CCc4cc(OC)ccc4[C@H]3CC[C@@]21C", "Observation type": "AC50", "Reading": "inactive"}
